# Test system: B6C3F1 mice, ip Sarcoma M5076, median survival T/C
# Experiment Notes: NCI In Vivo Anticancer Drug Screen. Data for tumor model Sarcoma M5076 (intraperitoneal) in B6C3F1 mice
# Measurement Conditions: endpoint: median survival time; dose: 43.75 mg/kg/injection; schedule: Q04DX004 (ip); vehicle: Klucel (hydroxypropylcellulose) (HPC); higher = longer survival
Inconclusive results and toxic doses are left out.
Reported T/C by item:

> print(dat)
                                   compound                            assayed.system  reported.metric       measurement
1  O=C1C(=O)N(c2cccc(Cl)c2)C(=O)N1Cc1ccccc1  B6C3F1 mice, ip Sarcoma M5076, median survival T/C              T/C  102 % of control

If you can, please state the reported T/C value of COc1ccccc1N1C(=O)C(=O)C(C(C)=O)C1=O (stereo not given) .
115 % of control

If you can, please state the reported T/C value of COc1ccc(CCN2C(=O)C(=O)N(c3cccc(Cl)c3)C2=O)cc1OC .
88 % of control

If you can, please state the reported T/C value of O=C1C(=O)N(c2ccccc2Cl)C(=O)N1Cc1ccccc1 .
102 % of control

If you can, please state the reported T/C value of CCn1c2ccccc2c2cc(N=Nc3cc4ccccc4cc3O)ccc21 .
89 % of control
